Target or system: T1, cynomolgus suPAR (cynomolgus, UniProt Q9GK78 23-303, limits assumed)
T1 construct: Target antigen of the off-rate screen; also called cynomolgus uPAR; cynoPLAUR-His
T1 sequence (Q9GK78 23-303 limits assumed): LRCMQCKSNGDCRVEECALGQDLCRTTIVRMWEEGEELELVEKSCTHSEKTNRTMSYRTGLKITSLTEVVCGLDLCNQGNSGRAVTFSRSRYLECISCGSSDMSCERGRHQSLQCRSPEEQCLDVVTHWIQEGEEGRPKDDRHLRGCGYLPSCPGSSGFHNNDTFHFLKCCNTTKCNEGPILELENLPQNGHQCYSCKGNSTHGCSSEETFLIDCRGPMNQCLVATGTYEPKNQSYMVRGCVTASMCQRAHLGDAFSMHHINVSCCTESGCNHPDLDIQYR
Assay method text: BLI (Octet) off-rate screen of scFv clones
Readout type: koff
Remember to quote the unit after the number.

Query string: Given the entry suPAR_DB03_C04 (scFv, V domains shown, screened as scFv) VH: QVQLVQSGAEVKKPGASVKVSCKASGFNIKDYYIHWVRQAPGQGLEWMGWIDPENGSTIYDQKFQGRVTMTRDTSTSTVYMELSSLRSEDTAVYYCARGYDVDWFVYWGQGTLVTVSS VL: DIQMTQSPSSLSASVGDRVTITCSASSSISYMYWYQQKPGKAPKLLIYRTSSLASGVPSRFSGSGSGTDFTLTISSLQPEDFATYYCQQYHSYPPTFGGGTKVEIK , report its measured koff.
Result string: 4.37e-07 s⁻¹

Query string: Given the entry suPAR_DB03_E09 (scFv, V domains shown, screened as scFv) VH: QVQLVQSGAEVKKPGASVKVSCKASGFNIKDYYIHWVRQAPGQGLEWMGWIDPNSGGTNYAQKFQGRVTMTRDTSTSTVYMELSSLRSEDTAVYYCARGYDVDWFVYWGQGTLVTVSS VL: DIQMTQSPSSLSASVGDRVTITCRARQSVSYMYWYQQKPGKAPKLLIYRTSNLASGVPSRFSGSGSGTDFTLTISSLQPEDFATYYCQQYHSYPPTFGGGTKVEIK , report its measured koff.
Result string: 0.000132 s⁻¹

Query string: Given the entry suPAR_DB03_E02 (scFv, V domains shown, screened as scFv) VH: QVQLVQSGAEVKKPGASVKVSCKASGYNFTGYYIHWVRQAPGQGLEWMGWIDHENGNTIYAQKFQGRVTMTRDTSTSTVYMELSSLRSEDTAVYYCARGYDVDWFVYWGQGTLVTVSS VL: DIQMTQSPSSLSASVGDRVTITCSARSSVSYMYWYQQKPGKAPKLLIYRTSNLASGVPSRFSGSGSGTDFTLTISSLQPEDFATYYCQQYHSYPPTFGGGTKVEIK , report its measured koff.
Result string: 0.000258 s⁻¹
